# Tested on: Skin fibroblasts derived from FA patients (GM4078)
# methodNotes: RSL3-induced cell death inhibitory activity in skin fibroblasts derived from FA patients (ATP, CellTiter-Glo)
# Type: cell-based, human
# testContext: compound 10 μmol/l, 3 μmol/l RSL3, 24 hours
reportedProperty: RSL3-induced cell death inhibitory activity (%) at each compound concentration (μmol/l)
Write the value in % as a bare number.

- compound: "COCc1nn(C)cc1Nc1nn(C2CCC2)c2cc(C(C)(C)O)ccc12 [Example 82]"
  recordedMeasurement: 73.8
- compound: "COc1c(Nc2nn(C)c3cc(C(C)(C)O)ccc23)cnn1CC(C)C [Example 40]"
  recordedMeasurement: 94.9
- compound: "CCn1nc(Nc2cn(C)nc2OC)c2ccc(C(C)(C)O)cc21 [Example 36]"
  recordedMeasurement: 86.0
- compound: "Cn1cc(Nc2nn(C)c3cc(C(C)(C)O)ccc23)c(C(F)(F)F)n1 [Example 5]"
  recordedMeasurement: 82.7
- compound: "COc1nn(C)cc1Nc1nn(CC2CC2(F)F)c2cc(C(C)(C)O)ccc12 (centres unmarked) [Example 77]"
  recordedMeasurement: 77.1
- compound: "COc1nn(C)cc1Nc1nn(C2CCC2)c2ccc(C(C)(C)O)cc12 [Example 70]"
  recordedMeasurement: 82.2
- compound: "COCc1nn(C)cc1Nc1nn(CC2CC2)c2cc(C(C)(C)O)ccc12 [Example 84]"
  recordedMeasurement: 73.8
- compound: "COc1c(Nc2nn(C)c3cc(C(C)(C)O)cc(F)c23)cnn1CC(C)C [Example 44]"
  recordedMeasurement: 95.0

Recorded result, COCc1nn(C)cc1Nc1nn(C(C)C)c2cc(C(C)(C)O)ccc12 [Example 85] , RSL3-induced cell death inhibitory activity (%) at each compound concentration (μmol/l): 72.6

Recorded result, Cn1nc(NC2CCCCC2)c2cc(C(C)(C)O)ccc21 [Example 59] , RSL3-induced cell death inhibitory activity (%) at each compound concentration (μmol/l): 95.9

Recorded result, Cn1nc(Nc2cnn3c2OCCC3)c2cc(F)c(C(C)(C)O)cc21 [Example 56] , RSL3-induced cell death inhibitory activity (%) at each compound concentration (μmol/l): 90.3

Recorded result, COc1cc(-c2cnn(C)c2)ccc1Nc1n[nH]c2cc(C(C)(C)O)ccc12 [Example 12] , RSL3-induced cell death inhibitory activity (%) at each compound concentration (μmol/l): 85.9

Recorded result, COCc1nn(C)cc1Nc1nn(C2CCC2)c2ccc(C(C)(C)O)cc12 [Example 88] , RSL3-induced cell death inhibitory activity (%) at each compound concentration (μmol/l): 72.7

====

# Tested on: Skin fibroblasts derived from FA patients (GM4078)
# methodNotes: RSL3-induced cell death inhibitory activity in skin fibroblasts derived from FA patients (ATP, CellTiter-Glo)
# Format: cell-based, human
# testContext: compound 0.1 μmol/l, 3 μmol/l RSL3, 24 hours
# Procedure: The effects of the compounds according to the present disclosure were evaluated according to the literature (M. G. Cotticelli et al, J Pharmacol Exp Ther 2019, 369, 47-54.). […]
Entry flag: T if RSL3-induced cell death inhibitory activity (%) at each compound concentration (μmol/l) reaches 50%; F if it does not.

- smilesRepresentation: "Cn1nc(Nc2cccc3c2OCC3)c2ccc(C(C)(C)O)cc21"
  classLabel: "T"
- smilesRepresentation: "COc1nn(C)cc1Nc1nn(C2CCC2)c2ccc(C(C)(C)O)cc12"
  classLabel: "T"
- smilesRepresentation: "COCc1nn(C)cc1Nc1nn(C2CCC2)c2cc(C(C)(C)O)ccc12"
  classLabel: "F"
- smilesRepresentation: "Cn1cc(Nc2nn(C)c3cc(C(C)(C)O)ccc23)c(C(F)(F)F)n1"
  classLabel: "T"
- smilesRepresentation: "CCn1nc(Nc2cn(C)nc2OC)c2ccc(C(C)(C)O)cc21"
  classLabel: "F"
- smilesRepresentation: "COc1nn(C)cc1Nc1nn(C(C)C)c2cc(C(C)(C)O)ccc12"
  classLabel: "T"
- smilesRepresentation: "Cn1nc(Nc2cnn3c2CCCC3)c2ccc(C(C)(C)O)cc21"
  classLabel: "F"
- smilesRepresentation: "COCc1nn(C)cc1Nc1nn(CC2CC2)c2cc(C(C)(C)O)ccc12"
  classLabel: "F"

Query: Determine whether this compound has RSL3-induced cell death inhibitory activity (%) at each compound concentration (μmol/l) no lower than 50%: "Cn1nc(NC2CCCCC2)c2cc(C(C)(C)O)ccc21"
Result: T

Query: Determine whether this compound has RSL3-induced cell death inhibitory activity (%) at each compound concentration (μmol/l) no lower than 50%: "COc1c(Nc2nn(C)c3cc(C(C)(C)O)cc(F)c23)cnn1CC(C)C"
Result: T

Query: Determine whether this compound has RSL3-induced cell death inhibitory activity (%) at each compound concentration (μmol/l) no lower than 50%: "Cn1nc(Nc2cnn3c2OCCC3)c2cc(F)c(C(C)(C)O)cc21"
Result: T

Ref: patent US12358879B2
